The measured values listed here are drawn from ChEMBL document CHEMBL4138075.

- System: HCT-116
- experimentSummary: Antiproliferative activity against human HCT116 cells measured after 48 hrs by MTT assay
- Format: functional, cell-based
- testSettings: HCT-116, 48 h
# if measured IC50 < 1 µM: fulfilled  # else: not fulfilled

Could you please tell me whether IC50 recorded for `O=C1c2ccncc2C(=O)c2c1[nH]c1ccc(F)cc21` is less than 1 µM?
not fulfilled

Strictly below 1 µM: is that where IC50 of `O=C1c2ccncc2C(=O)c2c1[nH]c1cc(C(F)(F)F)ccc21` sits?
not fulfilled

Just wondering, is IC50 of `Cc1ccc2[nH]c3c(c2c1)C(=O)c1cnccc1C3=O` below 1 µM?
fulfilled

For `O=C1c2ccncc2C(=O)c2c1[nH]c1ccc(Cl)cc21` , is the recorded IC50 below the cut-off of 1 µM?
not fulfilled

Please determine if `COc1cc2[nH]c3c(c2cc1OC)C(=O)c1cnccc1C3=O` is below 1 µM in terms of IC50.
not fulfilled

Strictly below 1 µM: is that where IC50 of `O=C1c2ccncc2C(=O)c2c1[nH]c1cc([N+](=O)[O-])ccc21` sits?
not fulfilled

Consider the molecule `CC[C@@]1(O)C(=O)OCc2c1cc1n(c2=O)Cc2cc3ccccc3nc2-1` . Is its IC50 strictly less than 1 µM?
fulfilled

Does the reported IC50 of the following molecule sit strictly below 1 µM? `COc1ccc2c3c([nH]c2c1)C(=O)c1ccncc1C3=O`
not fulfilled

Is IC50 of `O=C1c2ccncc2C(=O)c2c1[nH]c1ccccc21` strictly below 1 µM?
fulfilled

Consider `COc1ccc2[nH]c3c(c2c1)C(=O)c1cnccc1C3=O` . Does its IC50 lie strictly below 1 µM?
not fulfilled

Is IC50 of `Cc1ccc2c3c([nH]c2c1)C(=O)c1ccncc1C3=O` strictly below 1 µM?
not fulfilled

In plain terms, does `O=C1c2ccncc2C(=O)c2c1[nH]c1ccc([N+](=O)[O-])cc21` come in under 1 µM for IC50?
fulfilled

In plain terms, does `O=C1c2ccncc2C(=O)c2c1[nH]c1cc(Cl)ccc21` come in under 1 µM for IC50?
not fulfilled

IC50 strictly < 1 µM for this molecule? `O=C1c2ccncc2C(=O)c2c1[nH]c1ccc(C(F)(F)F)cc21`
not fulfilled

Is IC50 strictly under 1 µM for the entry `O=C1c2ccncc2C(=O)c2c1[nH]c1cc(F)ccc21` ?
not fulfilled
